- Tested on: HOP-62
- protocolSummary: Cytotoxicity against human HOP62 cells after 24 hrs by SRB assay
- Assay type: cell-based
- studyConditions: hop-62, 24 h
parameterMeasured: LC50

Use these answered entries as a reference point.
COc1ccc(C(=O)/C=C/c2cc3ccccc3[nH]c2=O)cc1    59 µM
O=C(/C=C/c1cc2ccccc2[nH]c1=O)/C=C/c1cc2ccccc2[nH]c1=O    > 100 µM
O=C(/C=C/c1cc2ccccc2[nH]c1=O)c1ccc(O)cc1    85.2 µM

Below: the item to evaluate.
-- ask What is its LC50 for HOP-62? Entry: `O=C(/C=C/c1cc2ccccc2[nH]c1=O)c1ccc(Cl)cc1`
-- reply > 100 µM
